Data origin: patent US20230049752A1

# system: human Claudin-6 (CLDN6) (human) (UniProt P56747)
# procedure summary: FACS, limiting dilution, UMUC4 cells
measured parameter: FACS signal at 8 nM
Give only the figure.

Task: For the binder AB S6 (antibody, V domains shown) VH: EVQLLESGGGLVQPGGSMRLSCAASGFTFSNYWMNWVRQAPGKGLEWLAQIRLKSDNYVTHYADSVKGRFTISRDDSKRTVYLQMNSLRAEDTGTYYCNDGPPSGSWGQGTLLTVSS VL: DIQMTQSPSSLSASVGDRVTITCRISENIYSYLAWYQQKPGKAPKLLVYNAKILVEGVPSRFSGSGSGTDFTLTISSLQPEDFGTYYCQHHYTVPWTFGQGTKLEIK , report FACS signal at 8 nM.
Output: 3300

Task: State its FACS signal at 8 nM for this binder: AB S1 (antibody, V domains shown) VH: EVQLLESGGGLVQPGGSMRLSCAASGFTFSNYWMNWVRQAPGKGLEWIAQIRLKSDNYATHYTDSVKGRFTISRDDSKRTVYLQMNSLRAEDTGTYYCSDGPPSGSWGQGTLLTVSS VL: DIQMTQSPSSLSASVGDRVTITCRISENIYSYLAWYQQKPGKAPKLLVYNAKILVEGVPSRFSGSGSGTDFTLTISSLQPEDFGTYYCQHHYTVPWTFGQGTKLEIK
Output: 2330

Task: Read the entry AB S7 (antibody, V domains shown) VH: QVQLVQSGAEVKKPGASVKMSCKASGYTFTTYTIHWVRQAPGQGLEWIGFINPSSGYTEYAQKFQGRVTLTADKSTSTVYMELSSLRSEDTAVYFCANGDYYVAYWGQGTLVTVSS VL: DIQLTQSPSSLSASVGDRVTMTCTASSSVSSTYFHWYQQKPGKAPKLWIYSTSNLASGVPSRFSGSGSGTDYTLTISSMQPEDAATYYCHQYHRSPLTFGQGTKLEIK and write its reported FACS signal at 8 nM.
Output: 3940

Task: Specify reported FACS signal at 8 nM for the binder shown: AB S11 (antibody, V domains shown) VH: QVQLVQSGAEVKKPGASVKMSCKASGYTFTTYTIHWVRQAPGQGLEWIGVINPSSGYTEYAQKFQGRVTLTADKSTSTVYMELSSLRSEDTAVYFCANGDYYVAYWGQGTLVTVSS VL: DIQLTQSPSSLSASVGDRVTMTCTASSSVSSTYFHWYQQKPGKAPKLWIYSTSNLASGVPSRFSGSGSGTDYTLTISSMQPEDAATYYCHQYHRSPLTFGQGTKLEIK
Output: 7000

Task: Give the reported value of FACS signal at 8 nM for this record: AB S12 (antibody, V domains shown) VH: QVQLVQSGAEVKKPGASVKMSCKASGYTFTTYTMHWVRQAPGQGLEWIGFINPSSGYTEYAQKFQGRVTLTADKSTSTVYMELSSLRSEDTAVYFCANGDYYVGYWGQGTLVTVSS VL: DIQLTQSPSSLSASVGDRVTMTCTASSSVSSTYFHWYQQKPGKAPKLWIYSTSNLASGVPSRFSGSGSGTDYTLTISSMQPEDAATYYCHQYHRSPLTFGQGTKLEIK
Output: 5040

Task: Identify FACS signal at 8 nM associated with the binder AB S5 (antibody, V domains shown) VH: EVQLLESGGGLVQPGGSMRLSCAASGFTFSNYWMNWVRQAPGKGLEWLAQIRLKSDNYATHYTDSVKGRFTISRDDSKRTVYLQMNSLRAEDTGIYYCSDGPPSGSWGQGTLLTVSS VL: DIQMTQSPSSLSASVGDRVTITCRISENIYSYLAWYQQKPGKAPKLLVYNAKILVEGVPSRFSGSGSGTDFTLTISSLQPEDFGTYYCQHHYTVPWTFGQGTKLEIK
Output: 2340

Task: Give the measured FACS signal at 8 nM for AB S2 (antibody, V domains shown) VH: EVQLLESGGGLVQPGGSMRLSCAASGFTFSNYWMNWVRQAPGKGLEWIAQIRLKSDNYATHYADSVKGRFTISRDDSKRTVYLQMNSLRAEDTGTYYCSDGPPSGSWGQGTLLTVSS VL: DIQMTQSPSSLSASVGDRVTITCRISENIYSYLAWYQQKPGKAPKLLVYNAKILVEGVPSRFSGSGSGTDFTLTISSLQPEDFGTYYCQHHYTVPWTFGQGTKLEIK
Output: 2270
